# Test system: MDA-MB-436 (Breast Carcinoma)
# experimentalDetails: combination Emax (second highest fraction inhibited in the dose matrix, 72 h); higher = more inhibition; extreme values may be limits of the assay
combination Emax by entry:
assayEndpoint: combination Emax

INSERT INTO results (compound, assayendpoint, observed) VALUES
  ('CC1(C)CCC(CN2CCN(c3ccc(C(=O)NS(=O)(=O)c4ccc(NCC5CCOCC5)c([N+](=O)[O-])c4)c(Oc4cnc5[nH]ccc5c4)c3)CC2)=C(c2ccc(Cl)cc2)C1 [Venetoclax] + CS(=O)(=O)CCNCc1ccc(-c2ccc3ncnc(Nc4ccc(OCc5cccc(F)c5)c(Cl)c4)c3c2)o1 [Lapatinib] (first compound max 1 µM, 7x7, partner max 10 µM)', 'combination Emax', 0.227),
  ('CC(=O)c1c(C)c2cnc(Nc3ccc(N4CCNCC4)cn3)nc2n(C2CCCC2)c1=O [Palbociclib] + CC1(C)CCC(CN2CCN(c3ccc(C(=O)NS(=O)(=O)c4ccc(NCC5CCOCC5)c([N+](=O)[O-])c4)c(Oc4cnc5[nH]ccc5c4)c3)CC2)=C(c2ccc(Cl)cc2)C1 [Venetoclax] (first compound max 10 µM, 7x7, partner max 1 µM)', 'combination Emax', 0.164),
  ('Cn1cnc2c(F)c(Nc3ccc(Br)cc3Cl)c(C(=O)NOCCO)cc21 [Selumetinib] + CC(C)n1c(=O)n(C)c2cnc3cc(F)c(-c4ccc(OCCCN5CCCCC5)nc4)cc3c21 [AZD1390] (first compound max 10 µM, 7x7, partner max 0.3 µM)', 'combination Emax', 0.259),
  ('CCc1c2c(nc3ccc(O)cc13)-c1cc3c(c(=O)n1C2)COC(=O)[C@]3(O)CC [SN-38] + CN(C)CCCOc1ccc(-c2ccc3ncc4c(c3c2)n(C2CCOCC2)c(=O)n4C)cn1 [AZD0156] (first compound max 0.3 µM, 7x7, partner max 1 µM)', 'combination Emax', 0.572),
  ('Cc1cc2ncnn2cc1Nc1ncc2c(n1)n(C1CCOCC1)c(=O)n2C [AZD7648] + C=CCn1c(=O)c2cnc(Nc3ccc(N4CCN(C)CC4)cc3)nc2n1-c1cccc(C(C)(C)O)n1 [AZD1775] (first compound max 10 µM, partner max 1 µM)', 'combination Emax', 0.362),
  ('O=C(c1cc(Cc2n[nH]c(=O)c3ccccc23)ccc1F)N1CCN(C(=O)C2CC2)CC1 [Olaparib] + Cc1c2c(nn1C)CSCc1cc(n(C)n1)CSc1cc(c3ccccc3c1)OCCCc1c(C(=O)O)n(C)c3c-2c(Cl)ccc13 [AZD5991] (first compound max 10 µM, 7x7, partner max 1 µM)', 'combination Emax', 0.234),
  ('CS(=O)(=O)CCNCc1ccc(-c2ccc3ncnc(Nc4ccc(OCc5cccc(F)c5)c(Cl)c4)c3c2)o1 [Lapatinib] + C[C@@H](Oc1cc(-c2cnn(C3CCNCC3)c2)cnc1N)c1c(Cl)ccc(F)c1Cl [Crizotinib] (first compound max 10 µM, 7x7, partner max 10 µM)', 'combination Emax', 0.248);

###

# System: EW-16 (Ewing's Sarcoma)
# experimentalDetails: combination Emax (second highest fraction inhibited in the dose matrix, 72 h); higher = more inhibition; extreme values may be limits of the assay
combination Emax by entry:
assayEndpoint: combination Emax

INSERT INTO assay_data (molecule, assayendpoint, observed) VALUES
  ('CCc1c2c(nc3ccc(O)cc13)-c1cc3c(c(=O)n1C2)COC(=O)[C@]3(O)CC [SN-38] + O=C(c1cc(Cc2n[nH]c(=O)c3ccccc23)ccc1F)N1CCN(C(=O)C2CC2)CC1 [Olaparib] (first compound max 0.3 µM, 7x7, partner max 10 µM)', 'combination Emax', 0.981),
  ('C=CCn1c(=O)c2cnc(Nc3ccc(N4CCN(C)CC4)cc3)nc2n1-c1cccc(C(C)(C)O)n1 [AZD1775] + C[C@@H]1COCCN1C2=NC(=NC(=C2)C3(CC3)[S@](=N)(=O)C)C4=C5C=CNC5=NC=C4 [AZD6738] (first compound max 1 µM, partner max 10 µM)', 'combination Emax', 0.771),
  ('COc1nnc2ccc(N3CCC(c4ccc(OCCN5CCN(C)C(=O)[C@H]5C)cc4)CC3)nn12 [AZD5153] + CCN(CCO)CCCOc1ccc2c(Nc3cc(CC(=O)Nc4cccc(F)c4)[nH]n3)ncnc2c1 [AZD2811] (first compound max 1 µM, 7x7, partner max 1 µM)', 'combination Emax', 0.553),
  ('COc1nnc2ccc(N3CCC(c4ccc(OCCN5CCN(C)C(=O)[C@H]5C)cc4)CC3)nn12 [AZD5153] + C=CCn1c(=O)c2cnc(Nc3ccc(N4CCN(C)CC4)cc3)nc2n1-c1cccc(C(C)(C)O)n1 [AZD1775] (first compound max 1 µM, partner max 1 µM)', 'combination Emax', 0.679);
